# credit: PubChem BioAssay AID1347075

Experiment: qHTS assay for MDR1-selective chemotherapeutics: Primary screen using the parental adenocarcinoma cell KB-3-1; note: nearly all actives have a fitted effect of over 60% in size
Conditions: KB-3-1 viability, CellTiter-Glo ATP luminescence, 72 h; series mostly up to 46.1 µM
Excerpt: A prime difficulty in effectively treating cancer is the development of cellular resistance to multiple structurally unrelated anticancer drugs, a phenomenon known as multidrug resistance (MDR). […] Numerous strategies to overcome P-gp-mediated MDR have been explored, including the design of drugs that evade recognition and efflux, and development of inhibitors to block efflux and restore drug accumulation. […]
Hit rate of the full screen: of about 400,000 compounds, about 5,500 (1.4%) were called active. Not shown: some 9% with an inconclusive outcome. Calls come from the whole dose curve; as a rule, active = well fitted cell-killing curve with a large enough effect; inconclusive = small, poorly fitted or top-dose-only effect, or effect the other way; inactive = flat fitted curve, though single readings scatter. The list comes from a sample in which actives are over-represented; it also holds close analogues and randomly drawn compounds.
# valid calls are active, inactive; nothing else

Record excerpt, results attached:
compound: Cc1ccc(Nc2nc3ccccc3nc2-n2nc(C)cc2C)c(Cl)c1
category-label: inactive
//
compound: CN(C)C(=S)N=c1ssc(=S)n1Cc1ccco1
category-label: active
//
compound: COc1cccc2c1C(=O)c1c(O)c3c(c(O)c1C2=O)CC(O)(C(C)=NNC(=O)c1ccc(Cl)c(Cl)c1)CC3OC1CC(N)C(O)C(C)O1 (stereo unspecified)
category-label: active
//
compound: N#Cc1ccc(C(=O)Nc2nc(-c3cccs3)c(C(=O)C(F)(F)F)s2)cc1
category-label: active

Kindly provide the recorded test outcome for the following compound: CC(=O)c1ccc(NC(=O)C2CCN(S(=O)(=O)c3c(C)noc3/C=C/c3ccc(C)cc3)CC2)cc1 inactive

Same question, CC1(C)CCSC(/C=C/c2ccccc2)=N1 this time active

Next: CCc1cnc2c(c1SCC(=O)c1ccccc1)c(=O)n(C)c(=O)n2C inactive

Query CC1(C(=O)O)CCN1C(=O)/C=C/c1ccccc1 (stereo unspecified) next inactive

Same lookup for CC1(C(=O)NS(=O)(=O)c2ccccc2)CCN1C(=O)C/C=C/c1ccccc1 (stereo unspecified) , please. inactive

How about this compound: Cc1ccc(-c2nc(CS(=O)(=O)CC(=O)NCc3ccccc3Cl)c(C)o2)cc1 inactive

And then Cc1ccc(NC(=O)COC(=O)C2CC2)cc1S(=O)(=O)N1CCOCC1 , what is it? inactive
